- measurement target: SARS-CoV-2 3CLpro (Severe acute respiratory syndrome coronavirus 2, UniProt P0DTD1)
- test: biochemical
- Type: biochemical
- Parameters: unit not given here
- condition details: sheet LOPAC_screen_w_protease; LOPAC1280 primary screen at 5 µM, with protease; replicate 1
reported metric: Replicate_1

compound: [Cl-].[Li+] [Lithium Chloride]
recorded value: 0.8231
//
compound: C[C@H](N)CN1CCc2ccc(Br)cc21.C[C@H](N)CN1CCc2ccc(Br)cc21.O=C(O)/C=C/C(=O)O [VER-3323 hemifumarate salt]
recorded value: 0.78
//
compound: N[C@@H](Cn1ccc(=O)[nH]c1=O)C(=O)O [S(-)-Willardiine]
recorded value: 0.8129
